# PROCEDURE SUMMARY: reduced viability of SK-BR-3 breast cancer cells – cell-based, 24 h, human, pilot screen (AID 572);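 also: compound exposure lasted between 18 and 24 h rather than exactly 24 h; 100% = carrier-treated control wells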
# ASSAY CONDITIONS: SK-BR-3 viability, CellTiter-Glo luminescence, at 10 µM, active compounds read low
RESULT TYPE: viability (%)

{"columns": ["COMPOUND", "RESULT TYPE", "UNIT LABEL", "OBSERVED VALUE"],
 "data": [
  ["CC(=O)NC(CCS(C)(=O)=O)C(=O)Nc1cccc(C)c1C (stereo not given)", "viability", "%", 89.5],
  ["O=C(Cn1ncc2c1-c1ccccc1OC2)N1CCN(c2ccccn2)CC1", "viability", "%", 91.5],
  ["CCCOc1ccc(C2C(C(=O)OC)=CN(CCOC)C=C2C(=O)OC)cc1", "viability", "%", 89],
  ["CC(C)CC1NC2(C(=O)N(C)c3ccccc32)C2C(=O)N(C(C)C)C(=O)C12 (stereo not given)", "viability", "%", 86.5],
  ["CCc1ccc(C(=O)NC2CCCCC2)s1", "viability", "%", 68],
  ["Cc1nonc1NC(=O)c1ccccc1Br", "viability", "%", 101],
  ["O=C(NC1CCCc2ccccc21)c1ccc(CNc2c(N3CCOCC3)c(=O)c2=O)cc1 (stereo not given)", "viability", "%", 86.5],
  ["O=C(c1ccco1)N1CCN(C(=O)C2CC(c3ccc(F)cc3)=NO2)CC1 (stereo not given)", "viability", "%", 88],
  ["O=C1c2ccccc2C(Nc2cccnc2)N1Cc1ccccc1Cl (stereo not given)", "viability", "%", 93],
  ["CC(=O)c1sc(NC(=O)C2COc3ccccc3O2)nc1C (stereo not given)", "viability", "%", 102]
]}

---

Listed next: entries and their corresponding Her2 level.
# TARGET OR SYSTEM: Receptor tyrosine-protein kinase erbB-2 (Homo sapiens)
# PROCEDURE SUMMARY: Her2 expression decrease, cell viability multiplex – SKBR3 breast tumor cells, AlphaScreen, ATP viability, primary screen (AID 461);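 also: lower value means less Her2 protein in the cells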
# ASSAY CONDITIONS: 18-24 h, at 10 µM, active compounds read low
RESULT TYPE: Her2 level (%)

{"columns": ["COMPOUND", "RESULT TYPE", "OBSERVED VALUE"],
 "data": [
  ["O=C(CCS(=O)(=O)c1cccc2nsnc12)NCc1ccccc1", "Her2 level", 116],
  ["Nc1nc2n(n1)C(c1cccc(Br)c1)CC(c1ccc(F)cc1)N2 (stereo unspecified)", "Her2 level", 109],
  ["COc1ccccc1Oc1ccc(S(=O)(=O)N2CCOCC2)cc1S(=O)(=O)N1CCOCC1", "Her2 level", 121],
  ["Cc1ccc(C2CC(c3ccc(C)cc3)n3nc(N)nc3N2)cc1 (stereo unspecified)", "Her2 level", 109],
  ["Cc1ccc(C(C)C)c(OCCCN2CC(C)OC(C)C2)c1 (stereo unspecified)", "Her2 level", 85],
  ["COc1ccc(C2C(C(=O)Nc3cccnc3)=C(C)Nc3nc(-c4cccs4)nn32)cc1OC (stereo unspecified)", "Her2 level", 94.5],
  ["CC1CCc2nn(CC(=O)N3CCN(C(=O)c4ccco4)CC3)cc2C1 (stereo unspecified)", "Her2 level", 95.5],
  ["COC(=O)C1(C#N)C(c2ccccc2)C1(C(=O)OC)C(=O)OC (stereo unspecified)", "Her2 level", 90],
  ["Cc1cc(N=Cc2cc(Br)ccc2O)no1", "Her2 level", 118],
  ["Cc1ccnc(NC(=O)C2CCC(CNc3c(N4CCCC4)c(=O)c3=O)CC2)c1 (stereo unspecified)", "Her2 level", 93.5],
  ["CC1CCCN(C(=O)C23CCC(C)(C(=O)C2)C3(C)C)C1 (stereo unspecified)", "Her2 level", 92],
  ["CCc1ccc(N(CC(=O)NC2CCCC2)S(=O)(=O)c2c(C)noc2C)cc1", "Her2 level", 110],
  ["O=C1CCCCCC1C1(O)C(=O)Nc2ccccc21 (stereo unspecified)", "Her2 level", 96.5],
  ["COc1ccc(C2c3c(oc4ccccc4c3=O)C(=O)N2c2ccc(C)cn2)cc1OC (stereo unspecified)", "Her2 level", 126],
  ["Cc1nnc(NC(=O)CSc2cn(CCNC(=O)c3ccccc3)c3ccccc23)s1", "Her2 level", 106],
  ["CCCN(CCC)CCNC(=O)c1cc2c(=O)n(C)c3ccccc3c2n1C", "Her2 level", 98.5],
  ["O=C(NCc1ccc(F)cc1)c1cc2ccccn2n1", "Her2 level", 98.5],
  ["c1ccn2c(SCc3ccc4c(c3)OCCO4)nnc2c1", "Her2 level", 108],
  ["CCOc1ccc2nc(Nc3nc4c(c(=O)[nH]3)CCC4)nc(C)c2c1", "Her2 level", 99],
  ["CCOC(=O)c1cc2c(=O)n3ccccc3nc2n(CC(C)C)c1=NC(=O)c1ccco1", "Her2 level", 83],
  ["CSc1cccc(NC(=O)C2CCN(S(=O)(=O)c3ccc(F)cc3)CC2)c1", "Her2 level", 70.5]
]}

---

# key: entry, value: growth inhibition
# PROCEDURE SUMMARY: S. cerevisiae growth inhibition in restrictive medium, OD615, pilot screen, restrictive growth control, yeast lifespan reduction project (AID 706);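 also: modified DeaD lifespan yeast strain shifted to restrictive glucose medium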
# ASSAY CONDITIONS: OD615, 48 h, at 10 µM, active compounds read high

{"columns": ["MOLECULE", "growth inhibition (%)"],
 "data": [
  ["CCCCNC(=O)c1cc2c(=O)n3cccc(C)c3nc2n1C", -6.39],
  ["CCOc1ccc(OCCCCN(C)C)cc1", 3.69],
  ["CCCC(=O)c1ccc(N2CCCCCC2)c(F)c1", -2.93],
  ["CC1Cn2c(nnc2-c2ccc(F)cc2)S1 (centres undefined)", -14.2]
]}

---

# PROCEDURE SUMMARY: viability of HCT116 without oncogenic beta-catenin – human colon tumor cells, pilot screen (AID 823);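 also: 0% = wells killed by 20 µM Hyamine and 100% = untreated DMSO cell wells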
# ASSAY CONDITIONS: HCT116 beta-catenin knockout viability, CellTiter-Glo, 60 h; at 10 µM; active compounds read low
Records with an inconclusive call do not appear.

{"columns": ["COMPOUND", "viability [%]"],
 "data": [
  ["O=C(Nc1cccnc1)Nc1ccccn1", 99.8],
  ["C#CCSc1nnc(-c2c[nH]c3ccccc23)n1C", 98.3],
  ["COc1cc2c(cc1OC)C(C)N(C(=O)Cn1ncc3c1-c1ccccc1OC3)CC2 (centres undefined)", 89.5],
  ["Cc1cc(NC(=O)CSc2nc3c(c(-c4cccnc4)c2C#N)CCC3)no1", 101]
]}

---

Some compounds, each annotated with its measured viability.
# PROCEDURE SUMMARY: viability of HCT116 without oncogenic beta-catenin – human colon tumor cells, pilot screen (AID 823);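 also: 0% = wells killed by 20 µM Hyamine and 100% = untreated DMSO cell wells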
# ASSAY CONDITIONS: HCT116 beta-catenin knockout viability, CellTiter-Glo, 60 h; at 10 µM; active compounds read low
Records with an inconclusive call do not appear.

{"columns": ["SMILES INPUT", "viability (%)"],
 "data": [
  ["Cc1nn(C(=O)c2ccoc2C)c(N)c1-c1ccccc1", 78.8],
  ["CCOC(=O)c1ccccc1NC(=O)c1cccnc1", 104],
  ["O=C(Cn1nc(Cc2cccnc2)c2ccccc2c1=O)Nc1ccc2c(c1)OCO2", 99]
]}

---

# PROCEDURE SUMMARY: S. cerevisiae growth inhibition in restrictive medium, OD615, pilot screen, restrictive growth control, yeast lifespan reduction project (AID 706);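 also: modified DeaD lifespan yeast strain shifted to restrictive glucose medium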
# ASSAY CONDITIONS: OD615, 48 h, at 10 µM, active compounds read high
RESULT TYPE: growth inhibition (%)

{"columns": ["SMILES INPUT", "OBSERVED VALUE"],
 "data": [
  ["CN1CCN(C(=O)C2CCN(S(=O)(=O)c3ccc4c(c3)oc(=O)n4C)CC2)CC1", -5.41],
  ["CC(=O)Nc1nc(-c2ccccc2)nc(C)c1C(C)=O", -7.77],
  ["O=C1C(C=NCCCN2CCOCC2)=C(O)c2ccccc21", 10.5],
  ["CCCN1CCN(C(=O)c2cn(CC(C)C)c(=O)c3cc(OC)c(OC)cc23)CC1", -0.27],
  ["Cc1ccc(OCCN2CCCCCC2)c(C)c1", 2.46]
]}

---

# PROCEDURE SUMMARY: RAM signaling pathway blockade in yeast – S. cerevisiae, Pdr1DBD-CYC8 efflux-inhibited sensitized strain, primary screen (AID 1298);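 also: 0% = DMSO untreated cells without growth and 100% = 10 µM 1-NA-PP1 full growth; higher means more yeast growth rescued from 5-FOA killing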
# ASSAY CONDITIONS: S. cerevisiae cbk1-as DSE1-URA3 strain, 5-FOA growth OD615, 2 d; at 50 µM; active compounds read high
Entries and their RAM network inhibition
RESULT TYPE: RAM network inhibition (%)

{"columns": ["SMILES INPUT", "OBSERVED VALUE"],
 "data": [
  ["Cn1c(=O)oc2cc(S(=O)(=O)NC3CCN(Cc4ccccc4)CC3)ccc21", 3.24],
  ["COc1ccc(OC)c(NC(=O)c2nnn(Cc3ccc(Br)cc3F)c2N)c1", 4.25],
  ["O=C(Nc1ccc(Cl)c(Cl)c1)c1ccncc1", 2.47],
  ["CCOc1ccccc1N1C(=O)c2cccnc2C1=O", 10.2]
]}
